Molecular target: Casein kinase II subunit alpha (Homo sapiens)
Sequence (P68400 whole entry): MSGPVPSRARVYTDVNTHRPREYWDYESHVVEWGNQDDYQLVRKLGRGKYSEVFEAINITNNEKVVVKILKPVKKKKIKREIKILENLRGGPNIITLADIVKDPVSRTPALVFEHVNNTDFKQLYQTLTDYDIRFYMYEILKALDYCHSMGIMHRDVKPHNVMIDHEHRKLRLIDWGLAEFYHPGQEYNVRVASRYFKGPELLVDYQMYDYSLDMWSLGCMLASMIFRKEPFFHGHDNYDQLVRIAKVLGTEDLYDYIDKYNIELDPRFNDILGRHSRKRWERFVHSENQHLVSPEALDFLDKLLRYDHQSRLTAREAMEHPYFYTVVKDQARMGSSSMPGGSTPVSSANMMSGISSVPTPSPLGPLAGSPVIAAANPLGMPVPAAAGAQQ
Assay: Inhibition of CK2alpha (unknown origin)
MEASURED ATTRIBUTE: IC50 (nM)
Numbers only, in nM.

Ask: Item CC1CC(=O)c2c3c(n(C(C)C)c2C1=O)-c1ccccc1C3=O (stereo unspecified) has what recorded IC50?
Reply: 607

###

Test system: MDA-MB-231
Assay: Antiproliferative activity against human MDA-MB-231 cells assessed as inhibition of cell growth incubated for 72 hrs by MTT assay
Type: functional, cell-based
Conditions: MDA-MB-231, 72 h
MEASURED ATTRIBUTE: IC50 (µM)
Give bare numbers, in µM.

Ask: Item O=C1CCC(N2C(=O)c3cccc(NC(=O)Cn4cc(CCCOC(=O)c5ccc6c(c5)nc(Nc5cccc(Cl)c5)c5ccncc56)nn4)c3C2=O)C(=O)N1 (stereo unspecified) has what recorded IC50?
Reply: 17

###

Target: Casein kinase II subunit beta (Homo sapiens, UniProt P67870)
Test: Binding affinity to CK2beta (unknown origin) using casein as substrate in presence of [gamma-32p]-GTP by liquid scintillation counter analysis
MEASURED ATTRIBUTE: pKi
Give bare numbers, as −log10 of the molar value.

Ask: Item OC[C@H]1O[C@@H](n2cnc3cc(Cl)c(Cl)cc32)[C@H](O)[C@@H]1O [DICHLORORIBOBENZIMIDAZOLE] has what recorded pKi?
Reply: 4.64

###

// values below are pKi; system is Casein kinase 2 (Rattus norvegicus, UniProt P19139)
Sequence (P67874 whole entry): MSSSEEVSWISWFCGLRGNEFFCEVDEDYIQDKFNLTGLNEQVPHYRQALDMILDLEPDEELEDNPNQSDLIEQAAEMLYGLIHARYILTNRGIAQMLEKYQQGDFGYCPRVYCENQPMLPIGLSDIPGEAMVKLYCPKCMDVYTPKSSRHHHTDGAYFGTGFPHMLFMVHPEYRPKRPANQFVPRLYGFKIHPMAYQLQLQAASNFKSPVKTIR
Sequence (P19139 whole entry): as the sequence (P68400 whole entry) above, with G335S, S337A, S338G, P340A, P378S, M381I counted along it
One number for each entry, as −log10 of the molar value.

Consider the following items and state reported pKi for each.
1. Cc1cc(=O)oc2cc3c([N+](=O)[O-])c(O)ccc3cc12
2. Brc1c(Br)c(Br)c2[nH]cnc2c1Br

Reply:
6.66
7.40

###

Target: Casein kinase 2 (Rattus norvegicus)
MEASURED ATTRIBUTE: IC50 (nM)
Answers are plain numbers, in nM.

Ask: Item O=c1c(O)c(-c2cc(O)c(O)c(O)c2)oc2cc(O)cc(O)c12 [MYRICETIN] has what recorded IC50?
Reply: 920

Just for reference, ChEMBL document CHEMBL5380797 is where these values come from.
